Reference source for all entries: patent US4293483A

# Tested on: Candida albicans A-26
# Procedure Details: Therapeutic activity against Candida albicans A-26 infection in mice
# Type: in vivo
# Measurement Setup: A26, sc
Numbered stars: 1 amine (or outer) side, 2 acyl side, 3 side chain; on linkers, the order of the positions; unused ones are H or OH. Bridge positions count the residues as written; N and C are the ends. Square brackets hold non-standard residues; d marks the D form. Peptide text beside a SMILES is read from it. * marks the point of attachment. Orn(4R-OH,5R-OH) = O=C([C@H](C[C@@H](O)[C@@H](O)N[*:3])N[*:1])[*:2]; hTyr(3S-OH,4S-OH) = N[C@H](C(=O)O)[C@H](O)[C@@H](O)c1ccc(O)cc1; Pro(3S-OH,4S-Me) = C[C@H]1CN[C@H](C(=O)O)[C@H]1O; Hyp = O=C(O)[C@@H]1C[C@@H](O)CN1; Myristoyl = CCCCCCCCCCCCCC(=O)*; 4Abz = Nc1ccc(C(=O)O)cc1
Value Type: ED50 (mg/kg)
Answer with a number only, understood to be in mg/kg.

For CCCCCCCCCCCCCC(=O)Nc1ccc(C(=O)N[C@H]2C[C@@H](O)[C@@H](O)NC(=O)[C@@H]3[C@@H](O)[C@@H](C)CN3C(=O)[C@H]([C@@H](C)O)NC(=O)[C@H]([C@H](O)[C@@H](O)c3ccc(O)cc3)NC(=O)[C@@H]3C[C@@H](O)CN3C(=O)[C@H]([C@@H](C)O)NC2=O)cc1 [Example 80] ({Myristoyl-4Abz}-[Orn(4R-OH,5R-OH)]T[Hyp][hTyr(3S-OH,4S-OH)]T[Pro(3S-OH,4S-Me)]; lactam 1-C) the compound record lists ED50 as 11

###

# Tested on: Trychophyton mentagrophytes #6
# Procedure Details: Agar plate disc diffusion test, MIC per disc
# Type: cell-based
# Measurement Setup: 0.01M sodium borate, pH 7.5, 24 hours at 30° C.
Numbered stars: 1 amine (or outer) side, 2 acyl side, 3 side chain; on linkers, the order of the positions; unused ones are H or OH. Bridge positions count the residues as written; N and C are the ends. Square brackets hold non-standard residues; d marks the D form. Peptide text beside a SMILES is read from it. * marks the point of attachment. Orn(4R-OH,5R-OH) = O=C([C@H](C[C@@H](O)[C@@H](O)N[*:3])N[*:1])[*:2]; hTyr(3S-OH,4S-OH) = N[C@H](C(=O)O)[C@H](O)[C@@H](O)c1ccc(O)cc1; Pro(3S-OH,4S-Me) = C[C@H]1CN[C@H](C(=O)O)[C@H]1O; Hyp = O=C(O)[C@@H]1C[C@@H](O)CN1; X3 = O=C(c1cccnc1N[*:1])[*:2]; Lauroyl = CCCCCCCCCCCC(=O)*; 4Abz = Nc1ccc(C(=O)O)cc1; Heptanoyl = CCCCCCC(=O)*; Aun = NCCCCCCCCCCC(=O)O
Value Type: MIC (μg/disc)
Answer with a number only, understood to be in μg/disc.

For CCCCCCC(=O)NCCCCCCCCCCC(=O)N[C@H]1C[C@@H](O)[C@@H](O)NC(=O)[C@@H]2[C@@H](O)[C@@H](C)CN2C(=O)[C@H]([C@@H](C)O)NC(=O)[C@H]([C@H](O)[C@@H](O)c2ccc(O)cc2)NC(=O)[C@@H]2C[C@@H](O)CN2C(=O)[C@H]([C@@H](C)O)NC1=O [Example 76] ({Heptanoyl-Aun}-[Orn(4R-OH,5R-OH)]T[Hyp][hTyr(3S-OH,4S-OH)]T[Pro(3S-OH,4S-Me)]; lactam 1-C) the molecule record lists MIC as 0.625

For CC(=O)Nc1ccc(C(=O)N[C@H]2C[C@@H](O)[C@@H](O)NC(=O)[C@@H]3[C@@H](O)[C@@H](C)CN3C(=O)[C@H]([C@@H](C)O)NC(=O)[C@H]([C@H](O)[C@@H](O)c3ccc(O)cc3)NC(=O)[C@@H]3C[C@@H](O)CN3C(=O)[C@H]([C@@H](C)O)NC2=O)cc1 [Example 77] (Ac-[4Abz][Orn(4R-OH,5R-OH)]T[Hyp][hTyr(3S-OH,4S-OH)]T[Pro(3S-OH,4S-Me)]; lactam 2-C) the molecule record lists MIC as 0.312

For CCCCCCCCCCCC(=O)Nc1ncccc1C(=O)N[C@H]1C[C@@H](O)[C@@H](O)NC(=O)[C@@H]2[C@@H](O)[C@@H](C)CN2C(=O)[C@H]([C@@H](C)O)NC(=O)[C@H]([C@H](O)[C@@H](O)c2ccc(O)cc2)NC(=O)[C@@H]2C[C@@H](O)CN2C(=O)[C@H]([C@@H](C)O)NC1=O [Example 75] (Lauroyl-[X3][Orn(4R-OH,5R-OH)]T[Hyp][hTyr(3S-OH,4S-OH)]T[Pro(3S-OH,4S-Me)]; lactam 2-C) the molecule record lists MIC as 0.078
